Values were extracted from ChEMBL document CHEMBL5346923.

- System: Bacillus subtilis
- PROTOCOL SUMMARY: Antibacterial activity against Bacillus subtilis ATCC 6633 assessed as inhibition of bacterial growth measured after 24 hrs by MH broth based assay
- Format: functional

| STRUCTURE SMILES | RESULT UNIT | PREFIX OPERATOR | MIC |
| --- | --- | --- | --- |
| C=C[C@]1(C)C[C@@H](OC(=O)CSc2cc[n+](CCCCCCC)cc2)[C@]2(C)[C@H](C)CC[C@]3(CCC(=O)[C@H]32)[C@@H](C)[C@@H]1O.[I-] | µg/mL | = | 4 |
| C=C[C@]1(C)C[C@@H](OC(=O)CSc2cc[n+](CC(=O)N3CCC(CO)CC3)cc2)[C@]2(C)[C@H](C)CC[C@]3(CCC(=O)[C@H]32)[C@@H](C)[C@@H]1O.[I-] | µg/mL | = | 64 |
| C=C[C@]1(C)C[C@@H](OC(=O)CSc2cc[n+](CCCCCC(=O)O)cc2)[C@]2(C)[C@H](C)CC[C@]3(CCC(=O)[C@H]32)[C@@H](C)[C@@H]1O.[I-] | µg/mL | > | 64 |
| C=C[C@]1(C)C[C@@H](OC(=O)CSc2cc[n+](CCCO)cc2)[C@]2(C)[C@H](C)CC[C@]3(CCC(=O)[C@H]32)[C@@H](C)[C@@H]1O.[I-] | µg/mL | = | 64 |
| C=CCC[n+]1ccc(SCC(=O)O[C@@H]2C[C@@](C)(C=C)[C@@H](O)[C@H](C)[C@]34CCC(=O)[C@H]3[C@@]2(C)[C@H](C)CC4)cc1.[I-] | µg/mL | = | 64 |

* * *

- Test system: Proteus
- PROTOCOL SUMMARY: Antibacterial activity against Proteus CMCC (B) 49027 assessed as inhibition of bacterial growth measured after 24 hrs by MH broth based assay
- Type: functional
compounds and their reported MIC
METRIC: MIC

| STRUCTURE SMILES | VALUE |
| --- | --- |
| C#CC[n+]1ccc(SCC(=O)O[C@@H]2C[C@@](C)(C=C)[C@@H](O)[C@H](C)[C@]34CCC(=O)[C@H]3[C@@]2(C)[C@H](C)CC4)cc1.[I-] | > 64 µg/mL |
| C=C[C@]1(C)C[C@@H](OC(=O)CSc2cc[n+](CC(=O)N(Cc3ccccc3)Cc3ccccc3)cc2)[C@]2(C)[C@H](C)CC[C@]3(CCC(=O)[C@H]32)[C@@H](C)[C@@H]1O.[I-] | > 64 µg/mL |
| C=C[C@]1(C)C[C@@H](OC(=O)CSc2cc[n+](CC(=O)N3CCS(=O)(=O)CC3)cc2)[C@]2(C)[C@H](C)CC[C@]3(CCC(=O)[C@H]32)[C@@H](C)[C@@H]1O.[I-] | > 64 µg/mL |

* * *

- Tested on: Bacillus subtilis
- PROTOCOL SUMMARY: Antibacterial activity against Bacillus subtilis ATCC 6633 assessed as inhibition of bacterial growth measured after 24 hrs by MH broth based assay
- Format: functional

| COMPOUND | RESULT UNIT | PREFIX OPERATOR | MIC |
| --- | --- | --- | --- |
| C=C[C@]1(C)C[C@@H](OC(=O)CSc2cc[n+](Cc3ccc(C)cc3)cc2)[C@]2(C)[C@H](C)CC[C@]3(CCC(=O)[C@H]32)[C@@H](C)[C@@H]1O.[I-] | µg/mL | > | 64 |
| C=C[C@]1(C)C[C@@H](OC(=O)CSc2cc[n+](COC)cc2)[C@]2(C)[C@H](C)CC[C@]3(CCC(=O)[C@H]32)[C@@H](C)[C@@H]1O.[I-] | µg/mL | = | 64 |
| C=C[C@]1(C)C[C@@H](OC(=O)CSc2cc[n+](CC(=O)N3CCOCC3)cc2)[C@]2(C)[C@H](C)CC[C@]3(CCC(=O)[C@H]32)[C@@H](C)[C@@H]1O.[I-] | µg/mL | > | 64 |
| C=C[C@]1(C)C[C@@H](OC(=O)CSc2cc[n+](CC(=O)O)cc2)[C@]2(C)[C@H](C)CC[C@]3(CCC(=O)[C@H]32)[C@@H](C)[C@@H]1O.[I-] | µg/mL | > | 64 |
| C=C[C@]1(C)C[C@@H](OC(=O)CSc2cc[n+](CC(=O)NCc3ccccc3C)cc2)[C@]2(C)[C@H](C)CC[C@]3(CCC(=O)[C@H]32)[C@@H](C)[C@@H]1O.[I-] | µg/mL | = | 64 |
| C=C[C@]1(C)C[C@@H](OC(=O)CSc2cc[n+](CC(=O)N3CCCCC3)cc2)[C@]2(C)[C@H](C)CC[C@]3(CCC(=O)[C@H]32)[C@@H](C)[C@@H]1O.[I-] | µg/mL | > | 64 |
| C=C[C@]1(C)C[C@@H](OC(=O)CSc2cc[n+](CC(=O)N(Cc3ccccc3)Cc3ccccc3)cc2)[C@]2(C)[C@H](C)CC[C@]3(CCC(=O)[C@H]32)[C@@H](C)[C@@H]1O.[I-] | µg/mL | = | 16 |
| C=C[C@]1(C)C[C@@H](OC(=O)CSc2cc[n+](Cc3cccc(NC(=O)OC(C)(C)C)c3)cc2)[C@]2(C)[C@H](C)CC[C@]3(CCC(=O)[C@H]32)[C@@H](C)[C@@H]1O.[I-] | µg/mL | = | 64 |
| C=C[C@]1(C)C[C@@H](OC(=O)CSc2cc[n+](CC#CC)cc2)[C@]2(C)[C@H](C)CC[C@]3(CCC(=O)[C@H]32)[C@@H](C)[C@@H]1O.[I-] | µg/mL | > | 64 |
| C=C[C@]1(C)C[C@@H](OC(=O)CSCCN(CC)CC)[C@]2(C)[C@H](C)CC[C@]3(CCC(=O)[C@H]32)[C@@H](C)[C@@H]1O [TIAMULIN] | µg/mL | = | 64 |
| C=C[C@]1(C)C[C@@H](OC(=O)CSc2cc[n+](CCCCCCCCCCC(=O)O)cc2)[C@]2(C)[C@H](C)CC[C@]3(CCC(=O)[C@H]32)[C@@H](C)[C@@H]1O.[I-] | µg/mL | = | 64 |
